experiment: Pharmacokinetic profiles; assay type: in vivo; conditions: rat, serum; SD rats, PO 10 mg/kg
measurementName: AUC(0-inf) (µg·h/mL)
A number alone suffices; assume µg·h/mL.

**Q:** Supply measured AUC(0-inf) of "CCN1CCN(C(=O)c2ccc(Nc3ncc(F)c(-c4ccc5nc(N(C)C)sc5c4)n3)nc2)CC1" in your reply.
**A:** 8.38

----------
assay: Pharmacokinetic profiles; type: in vivo; settings: SD, rat, serum, po, 10 mg/kg, SD rats, PO 10 mg/kg, 12 h; read-out: Con. Mean
measurementName: concentration at 12 h (ng/mL)
A number alone suffices; assume ng/mL.

**Q:** Supply measured concentration at 12 h of "CCN1CCN(C(=O)c2ccc(Nc3ncc(F)c(-c4ccc5nc(N(C)C)sc5c4)n3)nc2)CC1" in your reply.
**A:** 269

----------
test: Pharmacokinetic profiles; type: in vivo; conditions: rat, serum; SD rats, PO 10 mg/kg
measurementName: Cmax (ng/mL)
A number alone suffices; assume ng/mL.

**Q:** Supply measured Cmax of CCN1CCN(C(=O)c2ccc(Nc3ncc(F)c(-c4ccc5nc(N(C)C)sc5c4)n3)nc2)CC1 [YK-2-69] in your reply.
**A:** 674

----------
Measured inhibition at 0.123457 µM, listed per entry.
target: DYRK2 (Homo sapiens); construct: purchased Reaction Biology Corporation (assay service); assay: DYRKs kinase activity assay (33P-ATP, DYRKtide substrate): DYRK2; type: biochemical; conditions: DYRK2 kinase; Conc. 0.123457 µM; duplicate values; read-out: % Inhibition
A number alone suffices; assume %.

givenSmiles: CCN1CCN(C(=O)c2cnc(Nc3ncc(F)c(-c4ccc5ncsc5c4)n3)nc2)CC1
measurementName: inhibition at 0.123457 µM
numericReadout: 25

givenSmiles: CCN1CCN(C(=O)c2ccc(Nc3ncc(F)c(-c4ccc5nc(C)sc5c4)n3)nc2)CC1
measurementName: inhibition at 0.123457 µM
numericReadout: 70.4

givenSmiles: Cl.Fc1cnc(Nc2ccc(CN3CCNCC3)cn2)nc1-c1ccc2ncsc2c1
measurementName: inhibition at 0.123457 µM
numericReadout: 36.4

**Q:** Jot down inhibition at 0.123457 µM (DYRK2 (Homo sapiens)) of "Cc1nc2ccc(-c3nc(Nc4ccc(C(=O)N5CCNCC5)cn4)ncc3F)cc2s1.Cl" .
**A:** 73

**Q:** Jot down inhibition at 0.123457 µM (DYRK2 (Homo sapiens)) of "Cl.Fc1cnc(Nc2ccc(N3CCNCC3)cn2)nc1-c1ccc2ncsc2c1" .
**A:** 55.4

**Q:** Jot down inhibition at 0.123457 µM (DYRK2 (Homo sapiens)) of "CC(C)N1CCN(Cc2ccc(Nc3ncc(F)c(-c4ccc5ncsc5c4)n3)nc2)CC1" .
**A:** 34.4

**Q:** Jot down inhibition at 0.123457 µM (DYRK2 (Homo sapiens)) of "CC(C)(C)OC(=O)N1CCN(Cc2ccc(Nc3ncc(F)c(-c4ccc5ncsc5c4)n3)nc2)CC1" .
**A:** 18.1

**Q:** Jot down inhibition at 0.123457 µM (DYRK2 (Homo sapiens)) of "CCN1CCN(Cc2ccc(Nc3ncc(F)c(-c4ccc5ncsc5c4)n3)nc2)CC1" .
**A:** 47.2

----------
test system: PC-3 cells; assay: Anti-proliferation activity assay (CCK8, 72 h); type: cell-based, human; conditions: Homo sapiens, PC-3, read-out: IC50 against proliferation
measurementName: pIC50
The quantity pIC50 is defined as the negative base-10 logarithm of the molar concentration.

**Q:** Supply measured pIC50 of "CCN1CCN(C(=O)c2ccc(Nc3ncc(F)c(-c4ccc5nc(N(C)C)sc5c4)n3)nc2)CC1" in your reply.
**A:** 5.97

----------
assay: Pharmacokinetic profiles; type: in vivo; details: Sprague-Dawley, rat, serum, iv, 1 mg/kg, SD rats, IV 1 mg/kg, 0.083 h; read-out: Con. Mean
measurementName: concentration at 0.083 h
Answer shape: numeric part, then the unit.

**Q:** Supply measured concentration at 0.083 h of CCN1CCN(C(=O)c2ccc(Nc3ncc(F)c(-c4ccc5nc(N(C)C)sc5c4)n3)nc2)CC1 [YK-2-69] in your reply.
**A:** 781 ng/mL

----------
biological target: DYRK2 protein (Homo sapiens, UniProt Q92630); construct: 6xHis (N, cleaved yes); TEV protease cleavage site (N, cleaved yes); experiment: Microscale thermophoresis binding assay
measurementName: pKd
The quantity pKd is defined as the negative base-10 logarithm of the molar concentration.

compound: CC(C)N1CCN(Cc2ccc(Nc3ncc(F)c(-c4ccc5ncsc5c4)n3)nc2)CC1 [Compound 12]
pKd: 5.38

Now turn to the next compound.
**Q:** Supply measured pKd of CCN1CCN(C(=O)c2ccc(Nc3ncc(F)c(-c4ccc5nc(N(C)C)sc5c4)n3)nc2)CC1 [YK-2-69] in your reply.
**A:** 7.04

----------
target: DYRK2 (Homo sapiens); construct: purchased Reaction Biology Corporation (assay service); experiment: DYRKs kinase activity assay (33P-ATP, DYRKtide substrate): DYRK2; assay type: biochemical; details: DYRK2 kinase; Conc. 0.37037 µM; duplicate values; read-out: % Inhibition
Measured inhibition at 0.37037 µM, listed per entry.
A number alone suffices; assume %.

// below: answered compounds
givenSmiles: Cc1nc2ccc(-c3nc(Nc4ccc(C(=O)N5CCNCC5)cn4)ncc3F)cc2s1.Cl
target: DYRK2 (Homo sapiens)
unitsLabel: %
inhibition at 0.37037 µM: 86.1
--
givenSmiles: CC(C)N1CCN(Cc2ccc(Nc3ncc(F)c(-c4ccc5ncsc5c4)n3)nc2)CC1
target: DYRK2 (Homo sapiens)
unitsLabel: %
inhibition at 0.37037 µM: 57.9
--
givenSmiles: CCN1CCN(C(=O)c2ccc(Nc3ncc(F)c(-c4ccc5nc(C)sc5c4)n3)nc2)CC1
target: DYRK2 (Homo sapiens)
unitsLabel: %
inhibition at 0.37037 µM: 84.9

Now turn to the next compound.
**Q:** Supply measured inhibition at 0.37037 µM of "Cl.Fc1cnc(Nc2ccc(N3CCNCC3)cn2)nc1-c1ccc2ncsc2c1" in your reply.
**A:** 74

----------
experiment: Pharmacokinetic profiles; assay type: in vivo; details: rat, serum; SD rats, IV 1 mg/kg
measurementName: half-life
Answer shape: numeric part, then the unit.

**Q:** Supply measured half-life of CCN1CCN(C(=O)c2ccc(Nc3ncc(F)c(-c4ccc5nc(N(C)C)sc5c4)n3)nc2)CC1 [YK-2-69] in your reply.
**A:** 3 h

----------
biological target: DYRK3 (Homo sapiens); construct: purchased Reaction Biology Corporation (assay service); assay: DYRKs kinase activity assay (33P-ATP, DYRKtide substrate): DYRK3; type: biochemical
Sequence (O43781 whole entry): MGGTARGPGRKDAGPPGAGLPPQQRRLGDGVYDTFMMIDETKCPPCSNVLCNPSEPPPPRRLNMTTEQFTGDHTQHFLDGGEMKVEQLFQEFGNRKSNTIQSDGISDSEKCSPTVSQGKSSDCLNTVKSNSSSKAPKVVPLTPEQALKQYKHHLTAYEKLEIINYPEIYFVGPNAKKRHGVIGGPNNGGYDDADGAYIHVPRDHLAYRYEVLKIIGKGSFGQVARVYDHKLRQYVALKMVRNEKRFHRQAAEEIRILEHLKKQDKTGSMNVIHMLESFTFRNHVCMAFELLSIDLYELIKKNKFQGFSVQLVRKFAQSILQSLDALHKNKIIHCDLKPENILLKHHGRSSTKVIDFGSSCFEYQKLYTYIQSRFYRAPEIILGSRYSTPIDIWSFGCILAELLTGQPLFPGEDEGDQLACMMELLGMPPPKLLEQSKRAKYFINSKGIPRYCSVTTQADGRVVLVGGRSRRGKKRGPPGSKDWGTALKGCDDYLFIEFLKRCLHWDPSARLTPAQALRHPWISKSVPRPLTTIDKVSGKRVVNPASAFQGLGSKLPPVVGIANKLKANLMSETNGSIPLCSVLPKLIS
measurementName: IC50

**Q:** Supply measured IC50 of CCN1CCN(C(=O)c2ccc(Nc3ncc(F)c(-c4ccc5nc(N(C)C)sc5c4)n3)nc2)CC1 [YK-2-69] in your reply.
**A:** > 1000 nM

----------
experiment: Pharmacokinetic profiles; format: in vivo; settings: Sprague-Dawley, rat, serum, iv, 1 mg/kg, SD rats, IV 1 mg/kg, 0.25 h; read-out: Con. Mean
measurementName: concentration at 0.25 h (ng/mL)
A number alone suffices; assume ng/mL.

**Q:** Supply measured concentration at 0.25 h of "CCN1CCN(C(=O)c2ccc(Nc3ncc(F)c(-c4ccc5nc(N(C)C)sc5c4)n3)nc2)CC1" in your reply.
**A:** 524

----------
molecular target: DYRK1A (Homo sapiens)
pIC50: −log10 of the molar value.
measurementName: pIC50

**Q:** Supply measured pIC50 of "CCN1CCN(C(=O)c2ccc(Nc3ncc(F)c(-c4ccc5nc(N(C)C)sc5c4)n3)nc2)CC1" in your reply.
**A:** < 6.00

----------
assay: Pharmacokinetic profiles; assay type: in vivo; details: SD, rat, serum, po, 10 mg/kg, SD rats, PO 10 mg/kg, 4 h; read-out: Con. (individual rats NO.1-3)
measurementName: concentration at 4 h (ng/mL)
A number alone suffices; assume ng/mL.

**Q:** Supply measured concentration at 4 h of "CCN1CCN(C(=O)c2ccc(Nc3ncc(F)c(-c4ccc5nc(N(C)C)sc5c4)n3)nc2)CC1" in your reply.
**A:** 684

----------
Measured IC50, listed per entry.
Molecular target: DYRK2 (Homo sapiens, UniProt Q92630)
Construct: purchased Reaction Biology Corporation (assay service)
Sequence (Q92630 1-601): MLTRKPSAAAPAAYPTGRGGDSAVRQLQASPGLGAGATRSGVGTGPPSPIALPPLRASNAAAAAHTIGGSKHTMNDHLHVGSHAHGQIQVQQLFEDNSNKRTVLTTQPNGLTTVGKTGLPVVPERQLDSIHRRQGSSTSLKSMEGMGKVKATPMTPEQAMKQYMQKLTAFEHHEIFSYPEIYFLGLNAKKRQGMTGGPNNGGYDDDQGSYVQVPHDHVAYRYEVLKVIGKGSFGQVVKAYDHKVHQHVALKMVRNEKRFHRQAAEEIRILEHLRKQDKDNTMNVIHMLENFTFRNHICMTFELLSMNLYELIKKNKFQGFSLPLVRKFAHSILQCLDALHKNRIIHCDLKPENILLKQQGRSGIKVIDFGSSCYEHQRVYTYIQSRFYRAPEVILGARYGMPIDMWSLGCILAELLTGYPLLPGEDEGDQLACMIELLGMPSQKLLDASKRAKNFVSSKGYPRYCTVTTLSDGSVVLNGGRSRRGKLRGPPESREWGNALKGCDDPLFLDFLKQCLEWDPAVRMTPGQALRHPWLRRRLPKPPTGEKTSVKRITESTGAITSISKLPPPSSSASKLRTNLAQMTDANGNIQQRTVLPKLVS
Assay: DYRKs kinase activity assay (33P-ATP, DYRKtide substrate): DYRK2
Type: biochemical
Details: read-out: DYRK2 IC50
A number alone suffices; assume nM.

molecule: CCN1CCN(C(=O)c2ccc(Nc3ncc(F)c(-c4ccc5nc(C)sc5c4)n3)nc2)CC1 [Compound 23]
measurementName: IC50
numericReadout: 22

**Q:** Supply measured IC50 of Cc1nc2ccc(-c3nc(Nc4ccc(C(=O)N5CCNCC5)cn4)ncc3F)cc2s1.Cl [Compound 24] in your reply.
**A:** 27

**Q:** Supply measured IC50 of CCN1CCN(C(=O)c2ccc(Nc3ncc(F)c(-c4ccc5nc(N(C)C)sc5c4)n3)nc2)CC1 [YK-2-69] in your reply.
**A:** 9

**Q:** Supply measured IC50 of Cl.Fc1cnc(Nc2ccc(N3CCNCC3)cn2)nc1-c1ccc2ncsc2c1 [Compound 21] in your reply.
**A:** 85

**Q:** Supply measured IC50 of CCN1CCN(C(=O)c2cnc(Nc3ncc(F)c(-c4ccc5ncsc5c4)n3)nc2)CC1 [Compound 22] in your reply.
**A:** 697

**Q:** Supply measured IC50 of CC(C)N1CCN(Cc2ccc(Nc3ncc(F)c(-c4ccc5ncsc5c4)n3)nc2)CC1 [Compound 12] in your reply.
**A:** 263
